src = PubChem BioAssay AID1159580

Test: chemical genetic growth profiling, strain panel (AID 1159580);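 note: tested at 20 µM; growth read once vehicle control cultures reached saturation at 30 °C; 1 = growth at the plate median or of vehicle wells; lower values mean less growth of the strain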
Settings: S. cerevisiae deletion strains, growth OD, locus YPR167C, strain met16, hits give low values
Hit rate of the full screen: of about 5,500 compounds, about 2,000 (36%) were called active. Roughly 18% stayed inconclusive and do not appear here. The list shows a part of the results.
experimental_readout: normalized growth

Example results:
CC(=O)O[C@H]1CC[C@@]2(C)C(=CC(=O)C3C4CCC(C(C)CCCC(C)C)[C@@]4(C)CCC32)C1 (stereo partly specified)	0.984 (inactive)
CC(C)CCCC(C)[C@H]1CCC2C3CC[C@@H]4C[C@H](O)CC[C@]4(C)C3CC[C@@]21C (stereo partly specified)	1 (inactive)

Prompt: Consider the compound CC(=O)O[C@H]1CCC2(C)C3=C(CCC2C1(C)C)[C@@]1(C)CC[C@@H](C(C)CCC=C(C)C)[C@]1(C)CC3 (stereo partly specified) and give its measured normalized growth.
Response: 1.03 (inactive)

Prompt: Record: CC(C)=CCCC(C)[C@@H]1CC[C@]2(C)C3=C(CC[C@@]12C)C1(C)CC[C@H](O)C(C)(C)C1CC3 (stereo partly specified)
Response: 1.03 (inactive)

Prompt: Item: Cc1cc(=O)[nH]c(=S)[nH]1
Response: 1.01 (inactive)

Prompt: Now consider CC(C)=CCCC(C)C1CC[C@@]2(C)C3=C(CC[C@]12C)C1(C)CC[C@H](O)C(C)(C)C1CC3 (stereo partly specified) .
Response: 0.973 (inactive)

----------
Assay: chemical genetic growth profiling, strain panel (AID 1159580);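 note: tested at 20 µM; growth read once vehicle control cultures reached saturation at 30 °C; 1 = growth at the plate median or of vehicle wells; lower values mean less growth of the strain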
Conditions: S. cerevisiae deletion strains, growth OD, locus YHR200W, strain rpn10
In all, about 5,500 compounds went through this assay and about 2,000 (36%) were called active. About 18% were inconclusive and are not listed. Cut-off read from the data, not from the text of the source: active = normalized growth mostly below about 0.91 (no sharp cut-off); inconclusive = no clear call, values can overlap the other calls; inactive = mostly above about 0.92. Some of the results follow.
Just give me one of these, please: Y (active), N (inactive)

Study these solved cases before continuing.
C=C1c2c(Cl)ccc(O)c2C(O)=C2C(=O)[C@]3(O)C(O)=C(C(N)=O)C(=O)[C@@H](N(C)C)[C@@H]3[C@@H](O)[C@H]12	N
NCCCCCCNS(=O)(=O)c1cccc2c(Cl)cccc12	N
CN(C)C1C(=O)C(C(N)=O)=C(O)C2(O)C(=O)C3=C(O)c4c(O)ccc(Cl)c4C(C)(O)C3CC12 (stereo not drawn)	N

Prompt: Please share the test call associated with CN(C)[C@@H]1C(=O)C(C(N)=O)=C(O)[C@@]2(O)C(=O)C3=C(O)c4c(O)ccc(Cl)c4[C@@H](O)[C@H]3C[C@@H]12 .
Response: N

Prompt: Input C/C1=C\CC(C)(C)/C=C/CC2(C)OC2CC1 (stereo not drawn)
Response: N

Prompt: Now the compound O=C(O)C1=CCCNC1
Response: N

----------
Assay: chemical genetic growth profiling, strain panel (AID 1159580);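 note: tested at 20 µM; growth read once vehicle control cultures reached saturation at 30 °C; 1 = growth at the plate median or of vehicle wells; lower values mean less growth of the strain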
Details: S. cerevisiae deletion strains, growth OD, locus YPL055C, strain LGE1, hits give low values
Out of some 5,500 compounds screened, about 2,000 (36%) were called active. About 18% were inconclusive and are not listed. This is one part of the list.
Parameter: normalized growth. Scope: all listed entries.
Give the value as a plain number.

Use these answered entries as a reference point.
CN(C)[C@@H]1C(=O)C(C(N)=O)=C(O)[C@@]2(O)C(=O)C3=C(O)c4c(O)cccc4[C@@](C)(O)[C@H]3[C@H](O)[C@@H]12	1.02
O=c1[nH]cnc2ccsc12	1.09
COc1cc(CC(C)N)c(OC)cc1I (centres undefined)	1.03
CN[C@@H]1[C@H](O)[C@H](NC)[C@H]2O[C@@]3(O)C(=O)C[C@@H](C)O[C@H]3O[C@@H]2[C@H]1O	1.02
COc1c(C)c2c(c(C)c1Cl)Oc1c(Cl)c(OC)c(Cl)c(C)c1C(=O)O2	0.99
N#CCCC1(CCC#N)c2ccccc2-c2ccccc21	1.03
CC(Cc1cccc(C(F)(F)F)c1)NCCOC(=O)c1ccccc1 (centres undefined)	0.954
COCc1cc(=O)n2[nH]c(C(C)(C)C)cc2n1	1.08

Prompt: Which normalized growth reading was recorded for the compound COC(=O)c1c(OC)cc2c(c1C)Oc1c(Cl)c(O)c(Cl)c(C)c1C(=O)O2 ?
Response: 0.864

Prompt: What do we get for CN(C)C1C(=O)C(C(N)=O)=C(O)C2(O)C(=O)C3=C(O)c4c(O)ccc(Cl)c4C(C)(O)C3CC12 (centres undefined) ?
Response: 1.04

Prompt: Also need COC(=O)c1ccc(S(=O)(=O)N2CCC(C(N)=O)CC2)n1C , thanks.
Response: 0.852
